Test system: CD2F1 mice, L1210 leukemia ip, survival T/C
Experiment: NCI In Vivo Anticancer Drug Screen. Data for tumor model L1210 Leukemia (intraperitoneal) in CD2F1 (CDF1) mice
Reported conditions: endpoint: mean survival time; dose: 200.0 mg/kg/injection; schedule: Q04DX003 (ip); vehicle: saline with Tween-80; higher = longer survival
Toxic doses and inconclusive results are not listed.
Measure: T/C

c1ccc2c(c1)nnn2-c1ccncc1 | 104 % of control
Cc1cccc2c1CCC(OC(=O)c1cc([N+](=O)[O-])cc([N+](=O)[O-])c1)C2 (stereo not drawn) | 89 % of control
O/N=C/c1ccc(O)cc1 | 97 % of control
COc1ccc(C(=O)O)c([N+](=O)[O-])c1 | 98 % of control
BrC1CCC([Si](c2ccccc2)(c2ccccc2)c2ccccc2)CC1 (stereo not drawn) | 93 % of control

Suppose we examine the compound O=C(O)C1CCN1C1CCCCC1 (stereo not drawn) ; what T/C value has been reported?
103 % of control

Suppose we examine the compound C=CCCCCCCCCC(=O)N(CCOC)CCOC ; what T/C value has been reported?
94 % of control

Suppose we examine the compound C[Si](C)(C)c1c(F)c(F)c(F)c(F)c1F ; what T/C value has been reported?
94 % of control

Suppose we examine the compound COc1cc(NCCCCN2C(=O)c3ccccc3C2=O)c2ncccc2c1 ; what T/C value has been reported?
102 % of control

Suppose we examine the compound Nc1cc(C(F)(F)F)ccc1[N+](=O)[O-] ; what T/C value has been reported?
100 % of control

Suppose we examine the compound CCOC(=O)c1sc(N)c(C(=O)OCC)c1C ; what T/C value has been reported?
95 % of control

Suppose we examine the compound COc1ccc(C2OC2C(=O)O)cc1OC (stereo not drawn) ; what T/C value has been reported?
86 % of control

Suppose we examine the compound CC(C)N(C(=S)S)C(C)C ; what T/C value has been reported?
100 % of control

Hello, the source for this data is PubChem BioAssay AID256, in case you need it.
